test-details: Biodistribution of radiotracers in normal mice
Assay type: in vivo, mouse
assay-context: normal male mice, 60 min
reported-endpoint: Biodistribution: Pancreas (% dose/g)
// units = % dose/g; emit number, no label

| compound | reported-endpoint | unit-abbrev | recorded-value |
| --- | --- | --- | --- |
| O=C(O)CCc1ccc2c(c1)C[N+]13CC[N+]45CC(=O)[O][68Ga-3]14([O]C(=O)C3)([O]2)[O]c1ccc(CCC(=O)NCC(=O)N[C@@H](Cc2ccc(OCC(=O)N[C@@H](Cc3ccccc3)C(=O)NCCCC[C@H](NC(=O)N[C@@H](CCC(=O)O)C(=O)O)C(=O)O)cc2)C(=O)O)cc1C5 (some centres unmarked) [[^68Ga]5b] | Biodistribution: Pancreas | % dose/g | 0.52 |

Now let's try a different one.
For the compound O=C(O)CC[C@H](NC(=O)N[C@@H](CCCCNC(=O)CCCCCNC(=O)CCc1ccc2c(c1)C[N+]13CC[N+]45CC(=O)[O][68Ga-3]14([O]C(=O)C3)([O]2)[O]c1ccc(CCC(=O)NCCNC(=O)CN2CCN(CC(=O)O)CCN(CC(=O)O)CCN(CC(=O)O)CC2)cc1C5)C(=O)O)C(=O)O (some centres unmarked) [[^68Ga]1g] , what Biodistribution: Pancreas is on record?
0.48

The measured values listed here are drawn from patent US10688200B2.
